target.desc: MERTK (UniProt Q12866)
Sequence (Q12866 whole entry, looked up): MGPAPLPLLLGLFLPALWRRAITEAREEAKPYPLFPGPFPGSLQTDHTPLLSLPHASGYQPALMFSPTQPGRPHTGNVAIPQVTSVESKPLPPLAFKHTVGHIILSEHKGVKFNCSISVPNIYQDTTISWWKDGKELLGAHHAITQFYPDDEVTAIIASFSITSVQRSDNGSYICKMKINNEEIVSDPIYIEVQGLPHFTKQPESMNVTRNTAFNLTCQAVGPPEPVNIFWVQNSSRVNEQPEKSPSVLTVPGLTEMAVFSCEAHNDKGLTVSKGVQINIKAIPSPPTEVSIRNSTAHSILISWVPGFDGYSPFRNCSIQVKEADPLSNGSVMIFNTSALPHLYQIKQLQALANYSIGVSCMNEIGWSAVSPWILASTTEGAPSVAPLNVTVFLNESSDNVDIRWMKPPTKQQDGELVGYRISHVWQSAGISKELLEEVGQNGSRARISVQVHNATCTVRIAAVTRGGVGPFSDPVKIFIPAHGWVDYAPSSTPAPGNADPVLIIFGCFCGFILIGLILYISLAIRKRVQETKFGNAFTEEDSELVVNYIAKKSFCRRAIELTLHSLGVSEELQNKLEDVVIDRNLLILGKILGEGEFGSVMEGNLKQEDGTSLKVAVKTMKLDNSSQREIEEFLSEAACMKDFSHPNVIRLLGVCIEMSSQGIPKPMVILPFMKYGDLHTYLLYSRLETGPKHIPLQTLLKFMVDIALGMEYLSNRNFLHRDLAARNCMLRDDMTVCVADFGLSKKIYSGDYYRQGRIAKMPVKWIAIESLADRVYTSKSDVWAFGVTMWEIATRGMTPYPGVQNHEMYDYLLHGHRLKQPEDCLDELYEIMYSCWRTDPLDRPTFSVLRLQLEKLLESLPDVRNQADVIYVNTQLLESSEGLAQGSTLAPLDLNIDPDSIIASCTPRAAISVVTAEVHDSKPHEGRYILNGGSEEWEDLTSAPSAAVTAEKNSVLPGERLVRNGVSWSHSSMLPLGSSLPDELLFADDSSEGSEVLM
assay.summary: phosphorylation enrichment, bacterial display (enrichment ratio); higher = better substrate or ligand; peptides without Tyr show the background;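 note: 11-residue human phosphosite peptides and single-mutation variants displayed on the E. coli surface, counted by deep sequencing, each peptide's frequency after selection divided by its frequency in the unselected input library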;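 note: frequency after pTyr selection over input frequency; kinase dosed for 20-30% of maximal phosphorylation in three min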
Label no (0) if phosphorylation enrichment falls below 0.4; label yes (1) in every other case.

query: # bool: phosphorylation enrichment of TRSYDYMEGED [FGF7_Y58_G62E] >= 0.4
result: yes (1)

query: Quick check: does SGFESYGSSSF [RPA2_Y9_YF] have phosphorylation enrichment greater than or equal to 0.4?
result: no (0)

query: I'd appreciate it if you could say whether STEAIYRRFSK [SH3PXD2B_Y42_YF] has phosphorylation enrichment at least equal to 0.4.
result: no (0)

query: Determine whether this sequence has phosphorylation enrichment no lower than 0.4: FVTCTYSPALN [TP53_Y126_S121F]
result: no (0)

query: Please check the record ICFSDYVEVAD [PHACTR1_Y525_R521C] and state if its phosphorylation enrichment is at or above 0.4.
result: yes (1)

query: Say whether FPMLNYKDIRK [CFAP221_Y798] shows phosphorylation enrichment of 0.4 or more.
result: yes (1)

query: Check the entry GTYEDYVEGLR [MYL6_Y89] : does phosphorylation enrichment equal or exceed 0.4?
result: yes (1)

query: Textbook exercise: given the entry ALRHYYKLNII [ETV6_Y402] , state whether its phosphorylation enrichment is greater than or equal to 0.4.
result: yes (1)

query: phosphorylation enrichment >= 0.4 for ANKNVYEVEPT [MEGF10_Y1075_R1072K] ?
result: yes (1)

query: Check the entry HSRTRYERNIE [F2_Y434] : does phosphorylation enrichment equal or exceed 0.4?
result: yes (1)

query: In plain terms: is recorded phosphorylation enrichment at least 0.4 for LGSVVYAQSKE [KCNQ2_Y226_H228Q] ?
result: yes (1)

query: Could you tell me if the measured phosphorylation enrichment of AEKPKYQINNI [TJP1_Y1602] reaches 0.4 or more?
result: no (0)

query: For this sequence, is measured phosphorylation enrichment 0.4 or higher? TKFRNYLIPNG [CYP2C8_Y379_K383N]
result: yes (1)

---

Tested on: c-Abl (mouse)
assay.summary: phosphorylation enrichment, bacterial display (enrichment ratio); higher = better substrate or ligand; peptides without Tyr show the background
measure.name: phosphorylation enrichment
Reply briefly: the number, and no unit.

query: Item DSNLIYSQIWS [FCRL3_Y662_P660L] : provide phosphorylation enrichment
result: 15.4

query: Please indicate phosphorylation enrichment recorded for KRGIDYILRHM [FRMD1_Y225]
result: 0.567

query: Look up phosphorylation enrichment of CEAMEYQESKQ [BTK_Y511_L512Q] and report it.
result: 0.765

query: Report measured phosphorylation enrichment; entry is QNTGDYCDLYG [PTPN11_Y62_Y63C]
result: 1.34

query: Answer with the recorded phosphorylation enrichment for the sequence listed here: LTRDIYKNDYY [ROS1_Y2110_A2106T]
result: 1.21

query: Specify phosphorylation enrichment for SVVVRYEPPEV [TP53_Y220_P219R] and stop.
result: 0.747

query: Note down phosphorylation enrichment recorded for STLEVYSCHPP [IL21R_Y317]
result: 1.31

---

Field: phosphorylation enrichment. Provide a value for each of the sequences that follow.
target.desc: EPHB2 (UniProt P29323)
Sequence (P29323 whole entry, looked up): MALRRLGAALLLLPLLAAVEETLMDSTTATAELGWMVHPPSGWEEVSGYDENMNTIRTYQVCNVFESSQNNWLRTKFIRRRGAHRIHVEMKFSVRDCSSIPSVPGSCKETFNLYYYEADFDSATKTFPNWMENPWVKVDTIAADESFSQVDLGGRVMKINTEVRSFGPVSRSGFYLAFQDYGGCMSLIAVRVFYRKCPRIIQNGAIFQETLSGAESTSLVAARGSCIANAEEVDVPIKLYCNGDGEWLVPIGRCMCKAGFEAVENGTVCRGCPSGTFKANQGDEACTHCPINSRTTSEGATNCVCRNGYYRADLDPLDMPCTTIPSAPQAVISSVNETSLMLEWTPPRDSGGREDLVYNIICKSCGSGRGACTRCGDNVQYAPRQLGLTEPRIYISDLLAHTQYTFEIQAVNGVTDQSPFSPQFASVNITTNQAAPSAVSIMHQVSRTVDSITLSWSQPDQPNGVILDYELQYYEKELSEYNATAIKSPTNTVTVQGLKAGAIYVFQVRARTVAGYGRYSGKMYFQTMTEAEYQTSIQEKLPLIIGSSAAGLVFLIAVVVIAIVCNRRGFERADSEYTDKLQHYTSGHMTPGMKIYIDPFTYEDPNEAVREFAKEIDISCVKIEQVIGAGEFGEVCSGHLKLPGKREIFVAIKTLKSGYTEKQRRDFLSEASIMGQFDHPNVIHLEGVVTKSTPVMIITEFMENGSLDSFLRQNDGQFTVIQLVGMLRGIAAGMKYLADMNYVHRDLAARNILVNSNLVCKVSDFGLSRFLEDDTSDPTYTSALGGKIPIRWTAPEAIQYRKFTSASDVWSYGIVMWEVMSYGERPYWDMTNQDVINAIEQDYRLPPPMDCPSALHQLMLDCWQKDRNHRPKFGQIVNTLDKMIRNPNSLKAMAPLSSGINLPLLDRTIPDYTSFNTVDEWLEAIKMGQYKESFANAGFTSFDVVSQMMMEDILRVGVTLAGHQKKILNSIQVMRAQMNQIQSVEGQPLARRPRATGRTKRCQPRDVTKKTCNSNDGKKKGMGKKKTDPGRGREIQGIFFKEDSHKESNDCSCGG
assay.summary: phosphorylation enrichment, bacterial display (enrichment ratio); higher = better substrate or ligand; peptides without Tyr show the background
Answer using only a numeral; do not append any unit.

query: Tell us which phosphorylation enrichment value is on record for YFRDGYMPRQY [GSS_Y270]
result: 0.491

query: For the sequence LWQTIYNLEAE [TNNT2_Y251_S249T] , report phosphorylation enrichment.
result: 0.894

query: Report measured phosphorylation enrichment; entry is RAFRRYLLKQK [SCN2A_Y1919_YF]
result: 0.61

query: Supply phosphorylation enrichment value. Item: RAILNYIASKF [GSTA3_Y74_YF]
result: 0.86

query: Report phosphorylation enrichment, nothing else, for this sequence: FLAATYPTLGQ [NF1_Y2508_V2511L_YF]
result: 0.4

query: Input VPHECYAKVFD [ALB_Y394_D389V] , output reported phosphorylation enrichment.
result: 0.716

query: Fill in phosphorylation enrichment for record TISPFYRQSLF [CRYAA_Y48_YF]
result: 0.528

query: Look up and report measured phosphorylation enrichment for this entry: LNERHYGALIG [BPGM_Y92]
result: 0.469

query: Report measured phosphorylation enrichment; entry is STGWSYAGVAV [KLHL3_Y577_R575W]
result: 0.454

query: Look up phosphorylation enrichment of EYQLPYYNTVP [BMPR1A_Y457_M460T] and report it.
result: 1.19

query: Entry TKAEKYVNKPK [PLCG1_Y991_A995P] needs its phosphorylation enrichment filled in; supply it.
result: 0.376

query: Provide measured phosphorylation enrichment value, entry: LEHCQYVTQKV [ALDOB_Y204_E207Q]
result: 0.924

query: Identify measured phosphorylation enrichment corresponding to RLLVVYPWTRR [HBB_Y36_Q40R]
result: 0.597

query: Report phosphorylation enrichment for RLLRGYRQDAF [HLA-A_Y137_F133L_YF]
result: 0.334

query: Identify measured phosphorylation enrichment associated with EWQQIYTFDSG [JUP_Y20_T19I_YF]
result: 0.906

query: Provide phosphorylation enrichment value for the following sequence: FGFPGYQSKHF [TIMP3_Y177_YF]
result: 0.398

query: Quickly give me recorded phosphorylation enrichment for AATTAYSKPKR [MAP3K7_Y405]
result: 0.264

query: Output phosphorylation enrichment of QQLDEYQKLLD [LMNA_Y359_E361K]
result: 1.28

query: Tell us which phosphorylation enrichment value is on record for TVLEPYADPFF [ZC3H18_Y367_YF]
result: 0.5

query: Consider the sequence SCRENYSYSEE [LEMD3_Y258_D260Y] . State its measured phosphorylation enrichment.
result: 0.604

query: Quote phosphorylation enrichment reported for DPKFHYDNTAG [KDR_Y1214] please.
result: 0.422

query: Tell us which phosphorylation enrichment value is on record for ANFTEYVATRW [CDKL5_Y171_YF]
result: 0.922

query: Return phosphorylation enrichment (reported value) for this sequence: DPGVSYRTREE [PDHA1_Y301]
result: 0.61

query: For TKDTFYQQPMF [GBA_Y451_K452Q] , write its phosphorylation enrichment.
result: 2.01

query: Report phosphorylation enrichment for ASTDFNKRGDF [PDHA1_Y243_Y243N_YF]
result: 0.341

query: Provide measured phosphorylation enrichment value, entry: LPPGTYPSDFT [UNC5B_Y511_A516T]
result: 0.536

query: Look up and report measured phosphorylation enrichment for this entry: CTTIQYNYMCN [TP53_Y234_H233Q]
result: 0.671

query: Retrieve phosphorylation enrichment measured for VLNHAYENLTR [SYNE2_Y3255_D3253H] and print it.
result: 0.4

query: Consider the sequence SVVVPYAPPEV [TP53_Y220_E221A] and give its recorded phosphorylation enrichment.
result: 0.499

---

target.desc: Hck (UniProt P08631)
Sequence (P08631 whole entry, looked up): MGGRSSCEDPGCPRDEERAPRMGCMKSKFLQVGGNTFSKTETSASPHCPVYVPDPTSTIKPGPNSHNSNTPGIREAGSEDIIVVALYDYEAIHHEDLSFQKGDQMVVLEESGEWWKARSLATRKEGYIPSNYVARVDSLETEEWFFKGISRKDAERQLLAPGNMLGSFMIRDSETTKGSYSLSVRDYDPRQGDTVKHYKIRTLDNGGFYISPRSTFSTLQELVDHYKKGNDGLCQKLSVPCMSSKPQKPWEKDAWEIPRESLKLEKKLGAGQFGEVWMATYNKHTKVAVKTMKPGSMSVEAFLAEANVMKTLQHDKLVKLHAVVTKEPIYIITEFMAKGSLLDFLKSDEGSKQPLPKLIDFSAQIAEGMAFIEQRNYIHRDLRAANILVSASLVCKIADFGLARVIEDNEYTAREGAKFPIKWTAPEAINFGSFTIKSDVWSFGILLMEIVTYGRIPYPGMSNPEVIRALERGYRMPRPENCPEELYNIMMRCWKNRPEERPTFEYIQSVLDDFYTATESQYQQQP
assay.summary: phosphorylation enrichment, bacterial display (enrichment ratio); higher = better substrate or ligand; peptides without Tyr show the background
Could you label it Y if measured phosphorylation enrichment is 0.5 or higher, and N otherwise?

query: Record DFDHSYFFIAT [ESD_Y262_G257D_YF] ; criterion: phosphorylation enrichment no lower than 0.5. Met?
result: Y

query: Please tell me: is the sequence YIGVTYKNKED [PDGFRA_Y993_E996K] at or over 0.5 in terms of phosphorylation enrichment?
result: Y

query: Please tell me: is the sequence GFWPRYVKVGS [NOG_Y172_R167G] at or over 0.5 in terms of phosphorylation enrichment?
result: Y

query: // inclusive: phosphorylation enrichment at least 0.5? input: VAMELYVFRGV [GAN_Y471_G474R]
result: Y

query: Test whether the sequence SVMAEYGLFGA [VSX2_Y219_YF] records phosphorylation enrichment of 0.5 or higher.
result: Y

query: Could you tell me if the measured phosphorylation enrichment of SFGMVYEGNAR [INSR_Y1038] reaches 0.5 or more?
result: Y

query: Decide: phosphorylation enrichment of PGIRMYRVQFN [LRFN1_Y454_Q455R_YF] >= 0.5?
result: N

query: Kindly determine if phosphorylation enrichment recorded for EFLRNYFTDKA [DSG2_Y775] is above or exactly 0.5.
result: N

query: Is phosphorylation enrichment at least 0.5? Consider NDHHVYLEGTL [ALDOB_Y223]
result: Y

query: # check: phosphorylation enrichment of LGSVVYAQSKE [KCNQ2_Y226_H228Q] is greater than or equal to 0.5
result: Y

query: Is phosphorylation enrichment for EFGEVYKGTLK [EPHA2_Y628_M631T] at or above 0.5?
result: N

query: Would you say STGWSYAGVAV [KLHL3_Y577_R575W] shows phosphorylation enrichment at minimum 0.5?
result: Y

query: Does phosphorylation enrichment meet or surpass 0.5 for AAAAVYTFLPD [MYORG_Y36_M35V] ?
result: Y

query: Threshold query (phosphorylation enrichment >= 0.5) on VGSEDYGWDLT [SPTAN1_Y1792_R1794W]
result: N

query: Threshold query (phosphorylation enrichment >= 0.5) on EEALHYLTRVE [SET_Y119]
result: Y

query: Quick check: does GFSRHCEDGFP [CTNND1_Y217_Y217C_YF] have phosphorylation enrichment greater than or equal to 0.5?
result: N

query: Given the entry RRKRAYVEIEY [MAK16_Y282_Q277R] , answer whether its phosphorylation enrichment meets or surpasses 0.5.
result: Y

query: Threshold query (phosphorylation enrichment >= 0.5) on ASTDFNKRGDF [PDHA1_Y243_Y243N_YF]
result: N

query: Decide: phosphorylation enrichment of FIAVGYVDDSQ [HLA-A_Y51_T55S] >= 0.5?
result: N

query: # check: phosphorylation enrichment of RESYKYLPSSL [CXXC1_Y218_F219L] is greater than or equal to 0.5
result: Y

query: State whether the measured phosphorylation enrichment reaches 0.5, counting equality as reaching it, for FPMLNYKDIRK [CFAP221_Y798]
result: N

query: Hello, I need to know if YFRDGYMPRQY [GSS_Y270] has measured phosphorylation enrichment not below 0.5. Thanks!
result: N

query: Item FSMGCYEFSLG [HMGCL_Y198_I200F_YF] with phosphorylation enrichment of 0.5 or above?
result: Y

query: Hi, just wondering whether KNAEKYAEEDW [HSPA9_Y568_R573W] shows phosphorylation enrichment of 0.5 or higher.
result: Y

The origin of these recorded values is the supplement of paper PMC10065799.
